assay: Pharmacokinetics in SD rats, single dose intragastric and intravenous; format: in vivo; conditions: male, rat, plasma, intravenous injection, 3 mg/kg, read-out: Mean residence time MRT
metric.name: MRT (h)
Your answer is read as h, so omit the unit and give the number.

Record excerpt, results attached:
# compound, MRT [h]
rows = [
    ("COc1cccc2c3c(oc12)CN(CC[C@H]1CC[C@H](NC(=O)N(C)C)CC1)CC3 [I-A12]", 3.36),
    ("COc1cccc2c1cc1n2CCN(CCCCOc2ccc3ccc(=O)[nH]c3c2)C1 [I-C1]", 3.58),
    ("COc1cccc2c1cc1n2CCN(CCCCOc2ccc3c(c2)NC(=O)CC3)C1 [I-C2]", 1.38),
]

# context switch: different compound, same MRT
For reference, reported MRT for COc1cccc2c3c([nH]c12)CN(CC[C@H]1CC[C@H](NC(=O)N(C)C)CC1)CC3 [I-B7] stands at 6.01

====

assay: Pharmacokinetics in SD rats, single dose intragastric and intravenous; format: in vivo; conditions: male, rat, plasma, intravenous injection, 3 mg/kg, read-out: Apparent volume of distribution Vdss
metric.name: Vd (L/kg)
Give just the number in L/kg; leave the unit off.

# molecule, Vd, L/kg
records = [
    ("COc1cccc2c3c(oc12)CN(CC[C@H]1CC[C@H](NC(=O)N(C)C)CC1)CC3 [I-A12]", 9.14),
    ("COc1cccc2c3c([nH]c12)CN(CC[C@H]1CC[C@H](NC(=O)N(C)C)CC1)CC3 [I-B7]", 7.56),
    ("COc1cccc2c1cc1n2CCN(CCCCOc2ccc3c(c2)NC(=O)CC3)C1 [I-C2]", 1.51),
]

Lab note: next molecule to report on.
Quick note, Vd for COc1cccc2c1cc1n2CCN(CCCCOc2ccc3ccc(=O)[nH]c3c2)C1 [I-C1] landed at 2.16

====

Form field: Emax (one value per entry).
target: dopamine D2 receptors (Homo sapiens (Human), UniProt P14416); test: Dopamine D2 receptor Gαi1 BRET (G protein trimer dissociation); assay type: cell-based; details: relative to endogenous ligand dopamine, read-out: Gαi1 BRET Emax % ± SEM
Sequence (P14416 whole entry): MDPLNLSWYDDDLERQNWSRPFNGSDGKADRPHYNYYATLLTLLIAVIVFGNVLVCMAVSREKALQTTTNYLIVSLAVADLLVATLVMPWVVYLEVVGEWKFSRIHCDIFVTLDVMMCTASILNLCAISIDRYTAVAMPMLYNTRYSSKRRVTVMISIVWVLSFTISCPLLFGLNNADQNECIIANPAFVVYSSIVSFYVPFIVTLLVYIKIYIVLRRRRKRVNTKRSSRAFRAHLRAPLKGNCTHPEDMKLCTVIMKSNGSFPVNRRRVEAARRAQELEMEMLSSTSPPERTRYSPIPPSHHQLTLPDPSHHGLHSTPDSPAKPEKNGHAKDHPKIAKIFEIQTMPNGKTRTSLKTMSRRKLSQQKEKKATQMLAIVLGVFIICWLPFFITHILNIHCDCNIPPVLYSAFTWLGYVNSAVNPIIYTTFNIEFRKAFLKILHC
Report the value in % with no unit label.

See these solved cases before continuing.
# compound, Emax (%)
records = [
    ("COc1cccc2c1nc1n2CCN(CC2(O)CCCCC2)C1 [I-D7]", 67),
    ("COc1cccc2c3c(oc12)CN(CCCCOc1ccc2ccc(=O)n(C)c2c1)CC3 [I-A4]", 55),
    ("COc1cccc2c1nc1n2CCN(CCCOc2ccc3c(c2)NC(=O)CC3)C1 [I-D4]", 81),
    ("COc1cccc2c3c(oc12)CN(CC1(O)CCCCC1)CC3 [I-A21]", 68),
]

Briefly, Emax measured for COc1cccc2c1nc1n2CCN(CCCOc2ccc3ccc(=O)[nH]c3c2)C1 [I-D3] : 71

# compound CCOc1cccc2c3c(oc12)CN(CCCCOc1ccc2ccc(=O)[nH]c2n1)CC3 [I-A29] ; its Emax = 40

====

target: dopamine D2 receptors (Homo sapiens (Human)); experiment: Dopamine D2 receptor radioligand competition binding assay ([3H]-Methylspiperone); settings: [3H]-Methylspiperone 0.3 to 0.5 nM, 293T membranes; read-out: Affinity Ki
pKi: −log10 of the molar value.
Please mark Criterion met if the recorded pKi is equal to or greater than 7, and Criterion not met if it falls below.

Prompt line: Textbook exercise: given the entry CCOc1cccc2c3c(oc12)CN(CCCCOc1ccc2ccc(=O)[nH]c2n1)CC3 , state whether its pKi is greater than or equal to 7.
Response line: Criterion met

Prompt line: Say whether CCOc1cccc2c3c(oc12)CN(CCC1CC(NC(=O)N(C)C)C1)CC3 (stereo not shown) shows pKi of 7 or more.
Response line: Criterion not met

Prompt line: Does CCOc1cccc2c3c([nH]c12)CN(CCCOc1ccc2ccc(=O)[nH]c2c1)CC3 have a reported pKi of at least 7?
Response line: Criterion not met

Prompt line: Form field: pKi at least 7? Entry: CCOc1cccc2c3c(oc12)CN(CCCCOc1ccc2ccc(=O)[nH]c2c1)CC3
Response line: Criterion met

Prompt line: Dear colleague, could you confirm whether COc1cccc2c1cc1n2CCN(CCCCOc2ccc3c(c2)NC(=O)CC3)C1 has pKi at or above 7?
Response line: Criterion not met

Prompt line: Hi team, for COc1cccc2c3c(oc12)CN(CC1(O)CCCCC1)CC3 , is the recorded pKi at or above 7?
Response line: Criterion not met

Prompt line: Does the reported pKi for CCOc1cccc2c3c([nH]c12)CN(CC[C@H]1CC[C@H](NC(=O)N(C)C)CC1)CC3 fall at or above the 7 mark?
Response line: Criterion not met

All figures here come from patent US20250109139A1.
